Origin of values: patent US11247972B2

measurement.target: PfCDPK1 (Plasmodium falciparum (isolate 3D7), UniProt P62344)
assay.info: biochemical
cond: read-out: PfCDPK1 (% inhibition @ 3 uM)
Response key: YES means inhibition at 3 µM >= 90%; NO means inhibition at 3 µM < 90%.

Completed entries (count: 5):
> print(dat)
                            compound.smiles                        measurement.target  assigned.class
1  CCCC(=O)Nc1ccc(-c2nn(C(C)(C)C)c3ncnc(N)c23)cc1  PfCDPK1 (Plasmodium falciparum (isolate 3D7), UniProt P62344)             YES
2   Nc1ncnc2c1c(Cc1cccc3ccccc13)nn2C1CCNCC1  PfCDPK1 (Plasmodium falciparum (isolate 3D7), UniProt P62344)              NO
3  CC(C)n1nc(-c2ccc(Cl)c(Cl)c2)c2c(N)ncnc21  PfCDPK1 (Plasmodium falciparum (isolate 3D7), UniProt P62344)             YES
4  Nc1ncnc2c1c(-c1ccc(-c3ccccc3)cc1)nn2CC1CCNCC1  PfCDPK1 (Plasmodium falciparum (isolate 3D7), UniProt P62344)             YES
5  COc1ccc(-c2nn(C(C)C)c3ncnc(N)c23)cc1OC(C)C  PfCDPK1 (Plasmodium falciparum (isolate 3D7), UniProt P62344)              NO

Exercise: Could you please find out whether `CC(C)n1nc(-c2ccc3ccccc3c2)c2c(N)ncnc21` has inhibition at 3 µM that meets 90% or exceeds it?
Key: YES

Exercise: Would you kindly repeat that for `Nc1ncnc2c1c(Cc1cccc3ccccc13)nn2CC1CCCCC1` ?
Key: NO

---

measurement.target: PfCDPK4 (Plasmodium falciparum (isolate 3D7), UniProt Q8IBS5)
assay.info: biochemical
cond: read-out: PfCDPK4 (% inhibition @ 3 uM)
recorded.metric: inhibition at 3 µM (%)
Numbers only, in %.

Would you please look over these solved cases?
> print(dat)
                            compound.smiles                        measurement.target     recorded.metric  quantitative.result
1  CC(C)(C)n1nc(-c2ccc(NC(=O)c3ccccc3)cc2)c2c(N)ncnc21  PfCDPK4 (Plasmodium falciparum (isolate 3D7), UniProt Q8IBS5)  inhibition at 3 µM                   53
2  Cn1ncc2cc(-c3nn(C(C)(C)C)c4ncnc(N)c34)ccc21  PfCDPK4 (Plasmodium falciparum (isolate 3D7), UniProt Q8IBS5)  inhibition at 3 µM                   97
3  Cc1ccc(C)c(COc2ccc3cc(-c4nn(C(C)C)c5ncnc(N)c45)ccc3c2)c1  PfCDPK4 (Plasmodium falciparum (isolate 3D7), UniProt Q8IBS5)  inhibition at 3 µM                   10

Dear colleague, could you please provide inhibition at 3 µM for the molecules listed below?
1. CC(C)n1nc(-c2ccc3cc(OCc4ccncc4)ccc3c2)c2c(N)ncnc21
2. Nc1ncnc2c1c(-c1ccc3ccccc3c1)nn2CC1CCNCC1
3. CC(C)(C)n1nc(-c2ccc(NC(=O)Cc3ccccc3)cc2)c2c(N)ncnc21

Key:
1: 94; 2: 99; 3: 77

---

measurement.target: PfCDPK4 (Plasmodium falciparum (isolate 3D7))
assay.info: biochemical
cond: read-out: PfCDPK4 (% inhibition @ 3 uM)
Response key: y means inhibition at 3 µM >= 80%; n means inhibition at 3 µM < 80%.

Completed entries (count: 6):
> print(dat)
                            compound.smiles  assigned.class
1  CC(C)n1nc(-c2cc3c(Cl)cccc3[nH]2)c2c(N)ncnc21               y
2          CC(C)n1nc(-c2cccnc2)c2c(N)ncnc21               n
3      Cc1ccc(-c2nn(C(C)C)c3ncnc(N)c23)cc1C               y
4  O=C(NCCCCO)Nc1nc2ccc(C(=O)c3ccccc3)cc2[nH]1               n
5  COc1ccc2[nH]c(-c3nn(C(C)C)c4ncnc(N)c34)cc2c1               n
6  CC(C)n1nc(-c2ccc3cc(OCc4ccc(CC(F)(F)F)c(Cl)c4)ccc3c2)c2c(N)ncnc21               y

Exercise: Could you please find out whether `CC(C)(C)n1nc(-c2ccc(NC(=O)CCl)cc2)c2c(N)ncnc21` has inhibition at 3 µM that meets 80% or exceeds it?
Key: n

Exercise: Would you kindly repeat that for `CC(C)n1nc(-c2ccc3cc(OCc4cc(F)cc(Cl)c4)ccc3c2)c2c(N)ncnc21` ?
Key: n

Exercise: Would you kindly repeat that for `C=CCOc1ccc2cc(-c3nn(CC4CCNCC4)c4ncnc(N)c34)ccc2c1` ?
Key: y

Exercise: Would you kindly repeat that for `N[C@@H](Cc1c[nH]cn1)C(=O)Nc1nc2ccc(C(=O)c3ccccc3)cc2[nH]1` ?
Key: n

Exercise: Would you kindly repeat that for `Cc1cccc2[nH]c(-c3nc(C(C)(C)C)n4ccnc(N)c34)cc12` ?
Key: y
